- assay system: TJP2_1, Q9UDY2
- Sequence (Q9UDY2 24-128): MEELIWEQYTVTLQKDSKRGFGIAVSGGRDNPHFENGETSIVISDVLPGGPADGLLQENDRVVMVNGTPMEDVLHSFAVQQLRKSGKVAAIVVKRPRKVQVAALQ
- experiment notes: holdup assay
- Parameters: key: below the threshold = too weak to quantify, mostly under pKd 3.1 to 4
- measurement context: plain residues with an end cap or a label only (N-terminal biotin on a linker: ttds)
test readout: pKd

> print(dat)
                         binder  test.readout         assay.result
1   IYVPEAQTRL [DLGAP4, Q9Y2H0]           pKd  below the threshold
2     ERKLSSESQV [LRP4, O75096]           pKd  below the threshold
3  PKTPPTDTSV [KIR3DL3, Q8N743]           pKd  below the threshold
